biological target: CDK5/p25 (Homo sapiens (Human), UniProt Q00535); assay: CDK5/p25 kinase assay
Sequence (Q00535 whole entry): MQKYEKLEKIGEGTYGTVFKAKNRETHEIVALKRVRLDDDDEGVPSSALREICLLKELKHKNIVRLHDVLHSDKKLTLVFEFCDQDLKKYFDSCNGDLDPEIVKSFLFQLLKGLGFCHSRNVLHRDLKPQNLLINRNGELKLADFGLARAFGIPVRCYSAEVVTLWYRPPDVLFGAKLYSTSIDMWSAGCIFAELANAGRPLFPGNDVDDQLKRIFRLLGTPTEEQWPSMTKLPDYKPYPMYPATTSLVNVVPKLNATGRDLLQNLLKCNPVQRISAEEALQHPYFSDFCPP
Can you tell me IC50 for the items I'm about to list?

What value of IC50 has been recorded for this entry: `CN1CCN(c2ccc(Nc3nccc(N4C(=O)NCC45CCCCC5)n3)nc2)CC1` > 100 µM

// returns reported IC50 for input `CN1CCN(c2ccc(Nc3nccc(N4CC(=O)NCC45CCCCC5)n3)nc2)CC1` 39 µM

Please give the measured IC50 for this molecule: `CN1CCN(c2ccc(Nc3nccc(N4C(=O)N(C)CC45CCCCC5)n3)nc2)CC1` > 100 µM

Returns the measured IC50 for the input molecule. Input: `CN1CCN(c2ccc(Nc3nccc(N4C(=O)N(Cc5ccccc5)CC45CCCCC5)n3)nc2)CC1` > 100 µM
